system: HSC-39 (Gastric Carcinoma); assay: combination Emax (second highest fraction inhibited in the dose matrix, 72 h); higher = more inhibition; extreme values may be limits of the assay
Catalogue of combination Emax values
Quick one: just the number, no unit, thanks!

Examples with answers:
CN(CCO)CC[C@H](CSc1ccccc1)Nc1ccc(S(=O)(=O)NC(=O)c2ccc(N3CCC([C@@H](O)c4ccccc4-c4ccc(Cl)cc4)CC3)cc2)cc1S(=O)(=O)C(F)(F)F [AZD4320] + C1CN(CCC1(C(=O)N[C@@H](CCO)C2=CC=C(C=C2)Cl)N)C3=NC=NC4=C3C=CN4 [Capivasertib] (first compound max 1 µM, 7x7, partner max 3 µM) : 0.328
CN(CCO)CC[C@H](CSc1ccccc1)Nc1ccc(S(=O)(=O)NC(=O)c2ccc(N3CCC([C@@H](O)c4ccccc4-c4ccc(Cl)cc4)CC3)cc2)cc1S(=O)(=O)C(F)(F)F [AZD4320] + CC(=O)O[C@H]1C(=O)[C@@]2(C)[C@H]([C@H](OC(=O)c3ccccc3)[C@]3(O)C[C@H](OC(=O)[C@H](O)[C@@H](NC(=O)c4ccccc4)c4ccccc4)C(C)=C1C3(C)C)[C@]1(OC(C)=O)CO[C@@H]1C[C@@H]2O [Paclitaxel] (first compound max 1 µM, 7x7, partner max 3 µM) : 1
CN(CCO)CC[C@H](CSc1ccccc1)Nc1ccc(S(=O)(=O)NC(=O)c2ccc(N3CCC([C@@H](O)c4ccccc4-c4ccc(Cl)cc4)CC3)cc2)cc1S(=O)(=O)C(F)(F)F [AZD4320] + CN(C)CCCOc1ccc(-c2ccc3ncc4c(c3c2)n(C2CCOCC2)c(=O)n4C)cn1 [AZD0156] (first compound max 1 µM, 7x7, partner max 1 µM) : 0.279
CN(C)CCCOc1ccc(-c2ccc3ncc4c(c3c2)n(C2CCOCC2)c(=O)n4C)cn1 [AZD0156] + C=CCn1c(=O)c2cnc(Nc3ccc(N4CCN(C)CC4)cc3)nc2n1-c1cccc(C(C)(C)O)n1 [AZD1775] (first compound max 1 µM, partner max 1 µM) : 0.946
CC1(C)CCC(CN2CCN(c3ccc(C(=O)NS(=O)(=O)c4ccc(NCC5CCOCC5)c([N+](=O)[O-])c4)c(Oc4cnc5[nH]ccc5c4)c3)CC2)=C(c2ccc(Cl)cc2)C1 [Venetoclax] + CN(C)CCCOc1ccc(-c2ccc3ncc4c(c3c2)n(C2CCOCC2)c(=O)n4C)cn1 [AZD0156] (first compound max 1 µM, 7x7, partner max 1 µM) : 0.926

Request: Entry CCN(CCO)CCCOc1ccc2c(Nc3cc(CC(=O)Nc4cccc(F)c4)[nH]n3)ncnc2c1 [AZD2811] + C=CCn1c(=O)c2cnc(Nc3ccc(N4CCN(C)CC4)cc3)nc2n1-c1cccc(C(C)(C)O)n1 [AZD1775] (first compound max 1 µM, partner max 1 µM) : reported combination Emax = ?
Response: 0.985

Request: Entry COc1nnc2ccc(N3CCC(c4ccc(OCCN5CCN(C)C(=O)[C@H]5C)cc4)CC3)nn12 [AZD5153] + CC1(C)CCC(CN2CCN(c3ccc(C(=O)NS(=O)(=O)c4ccc(NCC5CCOCC5)c([N+](=O)[O-])c4)c(Oc4cnc5[nH]ccc5c4)c3)CC2)=C(c2ccc(Cl)cc2)C1 [Venetoclax] (first compound max 1 µM, 7x7, partner max 1 µM) : reported combination Emax = ?
Response: 0.676

Request: Entry Cc1cc2ncnn2cc1Nc1ncc2c(n1)n(C1CCOCC1)c(=O)n2C [AZD7648] + O=C(c1cc(Cc2n[nH]c(=O)c3ccccc23)ccc1F)N1CCN(C(=O)C2CC2)CC1 [Olaparib] (first compound max 10 µM, 7x7, partner max 10 µM) : reported combination Emax = ?
Response: 0.267

Request: Entry C[C@@H](Oc1cc(-c2cnn(C3CCNCC3)c2)cnc1N)c1c(Cl)ccc(F)c1Cl [Crizotinib] + Cn1cnc2c(F)c(Nc3ccc(Br)cc3Cl)c(C(=O)NOCCO)cc21 [Selumetinib] (first compound max 10 µM, 7x7, partner max 10 µM) : reported combination Emax = ?
Response: 0.975

Request: Entry COc1cc2ncnc(Nc3ccc(F)c(Cl)c3)c2cc1OCCCN1CCOCC1 [Gefitinib] + CC(C)n1c(=O)n(C)c2cnc3cc(F)c(-c4ccc(OCCCN5CCCCC5)nc4)cc3c21 [AZD1390] (first compound max 10 µM, 7x7, partner max 0.3 µM) : reported combination Emax = ?
Response: 0.217

Request: Entry Cc1c2c(nn1C)CSCc1cc(n(C)n1)CSc1cc(c3ccccc3c1)OCCCc1c(C(=O)O)n(C)c3c-2c(Cl)ccc13 [AZD5991] + C1CN(CCC1(C(=O)N[C@@H](CCO)C2=CC=C(C=C2)Cl)N)C3=NC=NC4=C3C=CN4 [Capivasertib] (first compound max 1 µM, 7x7, partner max 3 µM) : reported combination Emax = ?
Response: 1

Request: Entry CC1(C)CCC(CN2CCN(c3ccc(C(=O)NS(=O)(=O)c4ccc(NCC5CCOCC5)c([N+](=O)[O-])c4)c(Oc4cnc5[nH]ccc5c4)c3)CC2)=C(c2ccc(Cl)cc2)C1 [Venetoclax] + C1CN(CCC1(C(=O)N[C@@H](CCO)C2=CC=C(C=C2)Cl)N)C3=NC=NC4=C3C=CN4 [Capivasertib] (first compound max 1 µM, 7x7, partner max 3 µM) : reported combination Emax = ?
Response: 0.956

Hey, just so you know, these numbers are from the supplement of paper PMC11061612.
